Cited source: PubChem BioAssay AID1030

target: Aldehyde dehydrogenase 1A1 (Homo sapiens)
protocol-text: qHTS Assay for Inhibitors of Aldehyde Dehydrogenase 1 (ALDH1A1)
stated-conditions: Purified ALDH1A1, NADH fluorescence, propionaldehyde substrate; series mostly up to 75.3 µM
Out of some 220,000 compounds screened, about 16,000 (7.3%) were called active. About 25% were inconclusive and are not listed. Calls come from the whole dose curve; as a rule, active = well fitted inhibition curve with a large enough effect (not every such curve was filed as active); inconclusive = small, poorly fitted or top-dose-only effect, or another doubt; inactive = no such curve, though single readings can be large or run the other way. This excerpt belongs to a sample that is enriched for actives.
Choose one outcome from this list and give only that: TRUE (active), FALSE (inactive)

Data request: Hi team, can someone confirm the assay call for O=C(O)c1ccc2c3c(cccc13)C(=O)N(OS(=O)(=O)c1ccccc1)C2=O ?
Data returned: FALSE

More entries:
Data request: Hi team, can someone confirm the assay call for CC1CCN(C(=O)c2ccc(S(=O)(=O)Cc3cc(F)ccc3F)c([N+](=O)[O-])c2)CC1 ?
Data returned: TRUE

Data request: Hi team, can someone confirm the assay call for COc1ccccc1-n1c(=S)[nH]c2c(sc(=S)n2-c2ccc(C)cc2C)c1=O ?
Data returned: TRUE

Data request: Hi team, can someone confirm the assay call for COc1ccc(Cl)cc1NC(=O)CNc1ccccc1F ?
Data returned: TRUE

Data request: Hi team, can someone confirm the assay call for CC(=O)OC1C([N+]2(C)CCCCC2)C[C@H]2C3CC[C@H]4C[C@H](OC(C)=O)C([N+]5(C)CCCCC5)CC4(C)C3CCC12C (some centres not stated) ?
Data returned: FALSE

Data request: Hi team, can someone confirm the assay call for CC(=O)N(CN1C(=O)C2C3C=CC(C3)C2C1=O)c1cccc(Cl)c1 (configuration not stated) ?
Data returned: FALSE

Data request: Hi team, can someone confirm the assay call for O=C(Nc1ccc(F)cc1)C1CCN(C(=O)c2ccc([N+](=O)[O-])cc2)CC1 ?
Data returned: FALSE

Data request: Hi team, can someone confirm the assay call for CCN(CC)CCNC(=O)c1ccc(NS(=O)(=O)c2ccc3c(c2)OCCO3)cc1 ?
Data returned: FALSE

Data request: Hi team, can someone confirm the assay call for O=c1[nH]n(-c2ccc([N+](=O)[O-])cc2)c(=O)c2ccccc12 ?
Data returned: FALSE

Data request: Hi team, can someone confirm the assay call for COc1ccc(-c2[nH]nc3c2C(c2ccncc2)C(C#N)=C(N)O3)cc1 (configuration not stated) ?
Data returned: FALSE

Data request: Hi team, can someone confirm the assay call for N#CCc1ccc(OC(=O)c2cccnc2)cc1 ?
Data returned: FALSE

====

target: Aldehyde dehydrogenase 1A1 (Homo sapiens) (UniProt P00352)
Sequence (P00352 whole entry, looked up): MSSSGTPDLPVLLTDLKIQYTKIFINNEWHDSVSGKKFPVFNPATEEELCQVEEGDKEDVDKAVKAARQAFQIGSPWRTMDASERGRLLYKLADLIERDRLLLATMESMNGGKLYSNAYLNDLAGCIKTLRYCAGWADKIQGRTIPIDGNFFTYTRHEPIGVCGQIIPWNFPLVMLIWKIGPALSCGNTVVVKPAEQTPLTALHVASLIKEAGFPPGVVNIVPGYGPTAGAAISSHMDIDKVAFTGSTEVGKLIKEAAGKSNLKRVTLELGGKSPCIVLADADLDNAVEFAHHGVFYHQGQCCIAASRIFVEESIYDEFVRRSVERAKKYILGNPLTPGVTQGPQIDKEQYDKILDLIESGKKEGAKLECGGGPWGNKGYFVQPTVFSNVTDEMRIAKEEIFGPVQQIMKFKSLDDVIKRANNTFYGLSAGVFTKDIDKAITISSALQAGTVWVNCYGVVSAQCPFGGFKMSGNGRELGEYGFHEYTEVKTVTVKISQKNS
protocol-text: qHTS Assay for Inhibitors of Aldehyde Dehydrogenase 1 (ALDH1A1); note: potency is the fitted concentration of half-maximal effect
stated-conditions: Purified ALDH1A1, NADH fluorescence, propionaldehyde substrate; series mostly up to 75.3 µM
About 16,000 (7.3%) of roughly 220,000 compounds were called active. Inconclusive results (about 25%) are left out. The sample as a whole holds a higher share of actives than the screen did.
measurement-label: Potency

Reported Potency ( CCCCN(CC)CCNC(=O)c1[nH]c(C)c(C(C)=O)c1C ) = 10 µM (active)

Reported Potency ( O=C(NNC(=S)NCc1ccco1)C(c1ccccc1)c1ccccc1 ) = inactive

Reported Potency ( CCCCOCCCNC(=O)c1ccccc1OCC ) = inactive

Reported Potency ( OCCNCCOc1ccc(Cl)c(Cl)c1 ) = inactive

Reported Potency ( Cc1ccc(N(C(=O)c2ccc(S(=O)(=O)N(C)C)cc2)C2C=CS(=O)(=O)C2)cc1 (stereo unspecified) ) = inactive

Give Potency for each listed item.
1. COc1ccc(-n2c(C)nc3c(cnn3-c3ccccc3)c2=O)cc1
2. COc1ccc(N2CCN(c3ccc([N+](=O)[O-])cc3Cl)CC2)cc1
3. O=C(O)Cc1csc(-c2cccc(Oc3ccccc3)c2)n1

Data returned:
inactive
inactive
inactive

Give Potency for each listed item.
1. CC/C=C\C/C=C\C/C=C\C/C=C\C/C=C\C/C=C\CCC(=O)NCCc1ccc(O)c(O)c1
2. CCOc1ccccc1/C=c1\sc2nc(-c3ccco3)nn2c1=O
3. C=CCNC(=S)NNC(=O)c1cc(Cl)ccc1OC
4. Cn1c(=O)c2c(nc(N3CCCCCC3)n2CC(=O)c2ccc(Br)cc2)n(C)c1=O
5. COc1ccc(OC)c(C(=O)c2ccc(C(=O)O)cc2)c1
6. CCc1cccc2c(=O)c(C(=O)NCCCOC)c[nH]c12
7. CC(=O)c1c(C)[nH]c(C(=O)NCc2ccc(C)cc2)c1C
8. CCC1(C)Cc2c(sc3[nH]c(=S)n(Cc4ccccc4)c(=O)c23)CO1 (stereo unspecified)

Data returned:
["inactive", "28.2 µM (active)", "inactive", "inactive", "inactive", "2 µM (active)", "inactive", "inactive"]

Give Potency for each listed item.
1. Cn1c(=O)c2c(nc(N3CCCCCC3)n2CC(O)COc2ccc(Cl)cc2)n(C)c1=O (stereo unspecified)
2. CCOCCCNC(=O)c1c[nH]c2cc(C)ccc2c1=O
3. Cc1nc(N)[nH]c(=O)c1Oc1cccc(C(F)(F)F)c1
4. CC1=C2[C@@H](O)[C@H]([C@@H](C)C(=O)NCCC(C)C)CC[C@@]2(C)C=CC1=O
5. CCc1ccc2c(c1)C1(NN=C(c3ccccc3)S1)C(=O)N2 (stereo unspecified)
6. CCCCC/C=C\CC1OC1CCCCCCCC(=O)O (stereo unspecified)
7. C=CCn1c2ccccc2c2nnc(SC(CC)C(=O)Nc3nc(C)c(C(=O)OCC)s3)nc21 (stereo unspecified)
8. O=C(O)CSc1nnc(-c2ccc3c(c2)OCO3)n1-c1ccccc1

Data returned:
1: 11.2 µM (active); 2: inactive; 3: inactive; 4: inactive; 5: 28.2 µM (active); 6: inactive; 7: inactive; 8: inactive

Give Potency for each listed item.
1. COc1ccccc1OCC(=O)OCn1c(SC)nnc(C)c1=O
2. Cn1c(=O)n(Cc2ccco2)c(=N)c2c3c(sc21)CCCC3
3. Cc1cc(NC(=O)CN2CCCC(C)C2)n(-c2nc3ccccc3s2)n1 (stereo unspecified)
4. CCCCn1c(N)c(N2CCOCC2)c(=O)n(CC(=O)NCCc2ccccc2)c1=O
5. CNCC(O)CN1CCN(c2ccccc2OC)CC1 (stereo unspecified)
6. O=[N+]([O-])c1ccc(N2CCN(c3ccc(O)cc3)CC2)c(Cl)c1
7. O=C(O)c1ccc(/C=N/NC(=S)NCc2ccccc2)cc1
8. CCN(CC)S(=O)(=O)c1ccc(N(C)CCc2ccc(OC)c(OC)c2)nc1

Data returned:
1: inactive; 2: inactive; 3: inactive; 4: inactive; 5: inactive; 6: 7.94 µM (active); 7: inactive; 8: inactive

Give Potency for each listed item.
1. Cc1ccc(-n2ncc3c(=O)n(-c4ccc(C)c(C)c4)c(-c4ccco4)nc32)cc1
2. Cc1cccc(N2CCC(NCc3c(C(=O)N4CCCCC4)nc4c(C)cccn34)CC2)c1
3. C[C@@H](C(=O)N1CCNCC1)n1cc(CCC(=O)O)nn1

Data returned:
["25.1 µM (active)", "inactive", "inactive"]

Give Potency for each listed item.
1. CCn1c(=S)[nH]c2sc3c(c2c1=O)CCCCC3
2. COc1ccccc1N1CCN(C(=O)C(=O)N/N=C/c2ccccc2F)CC1
3. O=C(/C=C/c1ccc(Cl)cc1Cl)c1cccnc1
4. O=C1NC(=Nc2ccc(Cl)cc2)SC1Cc1cccc(Cl)c1Cl (stereo unspecified)
5. CC1CCCC(NC(=O)c2cccc(N3CCCC3=O)c2)C1C (stereo unspecified)

Data returned:
1: 22.4 µM (active); 2: inactive; 3: 10 µM (active); 4: inactive; 5: inactive

Give Potency for each listed item.
1. CC(=O)c1c(C)[nH]c(C(=O)NCCCN2CCCC2)c1C
2. CCOc1ccccc1C(=O)NCc1ccco1
3. Cc1cc(C)nc(Nc2ncn[nH]2)n1
4. CC(=O)NC(CC(=O)O)c1ccc(F)cc1 (stereo unspecified)
5. CCc1ccc2c(c1)C(c1ccc([N+](=O)[O-])cc1)=NNC(c1ccccc1)=N2

Data returned:
inactive
inactive
inactive
inactive
inactive

Reported Potency ( O=C(/C=C/c1ccc(Cl)cc1Cl)NCc1ccco1 ) = inactive

====

target: Aldehyde dehydrogenase 1A1 (Homo sapiens)
protocol-text: qHTS Assay for Inhibitors of Aldehyde Dehydrogenase 1 (ALDH1A1)
stated-conditions: Purified ALDH1A1, NADH fluorescence, propionaldehyde substrate; series mostly up to 75.3 µM
Out of some 220,000 compounds screened, about 16,000 (7.3%) were called active. Roughly 25% stayed inconclusive and do not appear here. Calls come from the whole dose curve; as a rule, active = well fitted inhibition curve with a large enough effect (not every such curve was filed as active); inconclusive = small, poorly fitted or top-dose-only effect, or another doubt; inactive = no such curve, though single readings can be large or run the other way. The list comes from a sample in which actives are over-represented; it also holds close analogues and randomly drawn compounds.
Choose one outcome from this list and give only that: active, inactive

Data request: Hi team, can someone confirm the assay call for CC(C)(C)OC(=O)N/N=C/c1cn(-c2ccccc2)nc1-c1cccnc1 ?
Data returned: inactive

Data request: Hi team, can someone confirm the assay call for O=C(COC(=O)c1ccccc1C(=O)N1CCN(c2ccccc2)CC1)NCc1ccccc1 ?
Data returned: inactive

Data request: Hi team, can someone confirm the assay call for Oc1ccc(N2CCN(C(=S)NCc3ccccc3)CC2)cc1 ?
Data returned: active

More entries:
Data request: Hi team, can someone confirm the assay call for Cc1ccccc1CN(c1ccc(C(=O)NCC2CCCO2)cc1)S(C)(=O)=O (stereo not given) ?
Data returned: inactive

Data request: Hi team, can someone confirm the assay call for c1ccc2c(C[n+]3csc4ccccc43)cccc2c1 ?
Data returned: active

Data request: Hi team, can someone confirm the assay call for CC(=O)C1=C(O)C(=O)N(c2cccnc2)C1c1ccc([N+](=O)[O-])cc1 (stereo not given) ?
Data returned: active
